assayed.target: His-tagged recombinant human Gal-3 (hGal-3) (Homo sapiens (Human), UniProt P17931)
Sequence (P17931 whole entry): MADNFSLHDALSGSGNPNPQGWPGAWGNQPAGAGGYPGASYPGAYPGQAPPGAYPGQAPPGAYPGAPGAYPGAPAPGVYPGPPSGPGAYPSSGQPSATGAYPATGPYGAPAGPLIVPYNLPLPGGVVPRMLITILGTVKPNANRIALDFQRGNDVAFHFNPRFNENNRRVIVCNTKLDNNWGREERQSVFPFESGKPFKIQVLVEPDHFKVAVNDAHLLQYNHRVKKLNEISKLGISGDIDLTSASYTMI
experiment: Gal-3 HTRF assay (His-tagged hGal-3 binding to B-ASF);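 also: compounds preincubated 30 min with hGal-3, then 1 h with B-ASF, detection via terbium anti-His antibody and streptavidin d2. Control with B-ASF counts as full signal, omitting B-ASF as background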
assay.context: HTRF, hGal-3 15 nM, B-ASF 15 nM; read-out: hGal-3 IC50
pIC50: −log10 of the molar value.
property.label: pIC50

Solved cases (3 shown):
> print(dat)
                           molecular.string  result
1  Cc1nc([C@@H]2O[C@H](CO)[C@H](O)[C@H](n3cc(-c4cc(F)c(F)c(F)c4)nn3)[C@H]2O)n(-c2cc(Cl)cc(C(F)(F)F)c2)n1    6.89
2  OC[C@H]1O[C@@H](c2nncn2-c2ccc(Cl)cc2)[C@H](O)[C@@H](n2cc(-c3cc(F)c(F)c(F)c3)nn2)[C@H]1O    6.48
3  Cc1nc([C@H]2C[C@@H](n3cc(-c4cc(F)c(F)c(F)c4)nn3)[C@@H](O)[C@@H](CO)O2)n(-c2cc(Cl)ccc2F)n1    6.77

(A) CO[C@@H]1[C@@H](n2cc(-c3cc(F)c(F)c(F)c3)nn2)[C@@H](O)[C@@H](CO)O[C@H]1c1ncnn1-c1ccc2nc(C)sc2c1
(B) OC[C@H]1O[C@@H](c2nncn2-c2ccc(Cc3ccncc3)cc2)[C@H](O)[C@@H](n2cc(-c3cc(F)c(F)c(F)c3)nn2)[C@H]1O
Between A and B , whose recorded pIC50 is greater? The response must carry the label of the picked entry. A

(a) OC[C@H]1O[C@@H](c2ncnn2-c2cccc(C(F)(F)F)c2)[C@H](O)[C@@H](n2cc(-c3cc(F)c(F)c(F)c3)nn2)[C@H]1O
(b) OC[C@H]1O[C@@H](c2nncn2-c2cccc(Oc3ccccc3)c2)[C@H](O)[C@@H](n2cc(-c3cc(F)c(F)c(F)c3)nn2)[C@H]1O
Just curious, which one has the larger pIC50 reading, a or b ? To answer, give the label that identifies your chosen option. a
(a: 6.66, b: 6.08)

(P) Cc1nc2ccc(-c3cnnn3[C@@H]3O[C@H](CO)[C@H](O)[C@H](n4cc(-c5cc(F)c(F)c(F)c5)nn4)[C@H]3O)cc2s1
(Q) OC[C@H]1O[C@@H](c2ncnn2-c2ccc(Cl)cc2)[C@H](O)[C@@H](n2cc(-c3cc(F)c(F)c(F)c3)nn2)[C@H]1O
(R) Cc1ccc(Cl)cc1-n1ncnc1[C@H]1C[C@@H](n2cc(-c3cc(F)c(F)c(F)c3)nn2)[C@@H](O)[C@@H](CO)O1
Hey, quick one: sort these by pIC50, low to high? When ranking, write the labels in the order the request describes. Q, R, P
(Q: 6.21, R: 6.60, P: 6.80)

(P) CS(=O)(=O)c1cccc(-n2cnnc2[C@@H]2O[C@H](CO)[C@H](O)[C@H](n3cc(-c4cc(F)c(F)c(F)c4)nn3)[C@H]2O)c1
(Q) COc1cccc(-n2ncnc2[C@@H]2O[C@H](CO)[C@H](O)[C@H](n3cc(-c4cc(F)c(F)c(F)c4)nn3)[C@H]2O)c1
In terms of reported pIC50, does P or Q have the smaller number? Mark your selection by writing its label. P
(P: 6.51, Q: 6.82)

The measurements presented in this section are drawn from patent US11267811B2.
